- target-or-system: T1, cynomolgus TGF-β RII/Fc (cynomolgus)
- T1 construct: extracellular domain; also called Cyno TGFBRII; Cyno TGFbRII
- assay-explanation: SPR Biacore T200, receptor-Fc captured by anti-human IgG, dAb as analyte, 1:1 model
pKd: −log10 of the molar value.
Record 1 (yes) whenever pKd is at 10 or higher; record 0 (no) when lower.

Solved entries (count: 5):
binder	label
DOM23h-439-40 (DOM23h-439-25 + C-terminal Alanine) (VHH, human VH dAb) VHH: EVQLLESGGGLVQPGGSLRLSCAASGFTFGTEQMWWVRQAPGKGLEFVSRIDSPGGRTYYADSVKGRFTISRDNSKNTLYLQMNSLRAEDTAVYYCAKRRPTGVSGTFYDYWGQGTLVTVSS	0 (no)
DOM23h-271-132 (DOM23h-271-123 + C-terminal Alanine + 64R) (VHH, human VH dAb) VHH: EVQLLESGGGLVQPGGSLRLSCAASGSTFTEYRMWWVRQAPGKGLEWVSAIEPIGHRTYYADSVRGRFTISRDNSKNTLYLQMNSLRAEDTAVYYCAKQAPGEKWARRWDLDYWGQGTLVTVSS	1 (yes)
DOM23h-271-131 (DOM23h-271-123 + C-terminal Alanine + 61N) (VHH, human VH dAb) VHH: EVQLLESGGGLVQPGGSLRLSCAASGSTFTEYRMWWVRQAPGKGLEWVSAIEPIGHRTYYANSVKGRFTISRDNSKNTLYLQMNSLRAEDTAVYYCAKQAPGEKWARRWDLDYWGQGTLVTVSS	1 (yes)
DOM23h-439-25 (VHH, expressed from pC10) VHH: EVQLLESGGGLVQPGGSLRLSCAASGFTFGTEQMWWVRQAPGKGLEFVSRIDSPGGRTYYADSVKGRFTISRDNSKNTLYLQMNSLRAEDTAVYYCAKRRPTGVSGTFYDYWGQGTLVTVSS	0 (no)
DOM23h-439-44 (DOM23h-439-25 + C-terminal Alanine + 61N64R) (VHH, human VH dAb) VHH: EVQLLESGGGLVQPGGSLRLSCAASGFTFGTEQMWWVRQAPGKGLEFVSRIDSPGGRTYYANSVRGRFTISRDNSKNTLYLQMNSLRAEDTAVYYCAKRRPTGVSGTFYDYWGQGTLVTVSS	1 (yes)

Kindly review the next binder as well.
Enquiry: Decide: is the reported value of pKd for DOM23h-271-133 (DOM23h-271-123 + C-terminal Alanine + 61N64R) (VHH, human VH dAb) VHH: EVQLLESGGGLVQPGGSLRLSCAASGSTFTEYRMWWVRQAPGKGLEWVSAIEPIGHRTYYANSVRGRFTISRDNSKNTLYLQMNSLRAEDTAVYYCAKQAPGEKWARRWDLDYWGQGTLVTVSS equal to or greater than 10?
Return: 1 (yes)
